# Test system: mPTP
# method-description: mPTP activity (Ca2+ retention) assay in isolated rat liver mitochondria
# Assay type: biochemical
# test-settings: examples tested by different contract research organisations, believed comparable
measured-attribute: mPTP Rat liver pIC50
Lab note: write the figure by itself, no unit.

[Q] mPTP Rat liver pIC50 lookup needed for Cn1nc(C(=O)NCC(Cc2ccc(Cl)cc2F)C2CC2)[nH]c1=O (stereo not drawn) , thanks.
[A] 6.11

[Q] Record: Cn1nc(C(=O)NC(C(F)(F)F)C(C)(C)Cc2ccccc2)[nH]c1=O (stereo not drawn)
[A] 5.23

[Q] Check Cn1nc(C(=O)NCC(Cc2ccccc2)C2CC2)[nH]c1=O (stereo not drawn) too.
[A] 6.46

[Q] # repeat for O=C(NCC1(Cc2ccccc2)CCC1)c1ccnc(=O)[nH]1
[A] 5.13

[Q] Entry to check: O=C(NCC1(Cc2ccc(F)cc2F)CCC1)c1noc(=O)[nH]1
[A] 6.15

[Q] Param item: CC(CNC(=O)c1cc(O)no1)(Cc1ccc(F)cc1)C1CC1 (single isomer, unassigned) [Example 272]
[A] 4.52

[Q] Now give it for CC(CNC(=O)c1ncc(F)c(=O)[nH]1)(Cc1ccc(F)cc1)C1CC1 (single isomer, unassigned) [Example 261] too.
[A] 7.13

[Q] Please give the result for Cc1cc(F)ccc1CC1(CNC(=O)c2nccc(=O)[nH]2)CCC1 too.
[A] 6.07

[Q] Follow-up entry: CC[C@H](CNC(=O)c1nccc(=O)[nH]1)Cc1ccc(F)cc1F [Example 191]
[A] 6.47

[Q] Also O=C(NC[C@H](Cc1ccc(F)cc1F)C1CC1)c1cc(=O)[nH]o1 , if possible.
[A] 6.39

[Q] Item: O=C(NCC1(Cc2ccc(F)cc2F)CC(F)C1)c1nccc(=O)[nH]1 (single isomer, unassigned) [Example 248]
[A] 6.16

[Q] And the next one, O=C(NC[C@H](Cc1ccc(F)cc1F)C1CC1)c1coc(=O)[nH]1 ?
[A] 5.58

[Q] Moving on to the next compound: Cn1nc(C(=O)NCC2(Cc3cccc(Cl)c3F)CCC2)[nH]c1=O
[A] 5.83

---

Provide the reported mPTP Rat liver pIC50 of each item.
# System: mPTP
# method-description: mPTP activity (Ca2+ retention) assay in isolated rat liver mitochondria
# Format: biochemical
# test-settings: examples tested by different contract research organisations, believed comparable

[Q] So what does the record say about mPTP Rat liver pIC50 for O=C(NCC1(Cc2ccc(F)cc2F)CCC1)c1cc(=O)[nH]s1 [Example 201] ?
[A] <4.57

[Q] Try the compound O=C(NCC1(Cc2ccc(F)cc2F)CCC1)c1cnc(=O)[nH]c1 [Example 145]
[A] <4.57

[Q] And for Cn1nc(C(=O)NCC(Cc2ccc(F)cc2F)C2CCCC2)[nH]c1=O (stereo not drawn) [Example 103] ?
[A] <4.57

---

# Tested on: mPTP
# method-description: mPTP activity (Ca2+ retention) assay in isolated rat liver mitochondria
# Format: biochemical
# test-settings: examples tested by different contract research organisations, believed comparable
For each record, write down the corresponding mPTP Rat liver pIC50.

[Q] # get_value(readout= mPTP Rat liver pIC50, system= mPTP) for Cn1nc(C(=O)NCC(C)(C)Cc2ccccc2)ccc1=O
[A] <4.52

[Q] How about this molecule: Cn1nc(C(=O)NCC2(Cc3ccc(F)cc3OC(F)(F)F)CCC2)[nH]c1=O
[A] <4.57

[Q] Quick one: Cn1c(C(=O)NCC2(Cc3ccc(F)cc3F)CCC2)n[nH]c1=O
[A] <4.57

[Q] Consider next the molecule CCC(CNC(=O)c1nn(C)c(=O)[nH]1)Cc1cscn1 (stereo not shown) in the same way.
[A] <4.57

---

# System: mPTP
# method-description: mPTP activity (Ca2+ retention) assay in isolated rat liver mitochondria
# Type: biochemical
# test-settings: examples tested by different contract research organisations, believed comparable
Field: mPTP Rat liver pIC50. Provide a value for each of the compounds that follow.
Note: the reply should be a number with no unit written.

[Q] Request the reported mPTP Rat liver pIC50 associated with O=C(NCC1(Cc2ccccc2)CCC1)c1cncc(O)n1
[A] 5.64

[Q] Next compound up: O=C(NCC1(Cc2ccc(F)cc2F)CC(F)C1)c1nccc(=O)[nH]1 (single isomer, unassigned) [Example 247]
[A] 6.27

[Q] Also need O=C(NCC1(Cc2ccccc2)CCCCC1)c1cncc(=O)[nH]1 , thanks.
[A] 4.71

[Q] # iterate: CC(NC(=O)c1nn(C)c(=O)[nH]1)C1(Cc2ccccc2)CCC1 (single isomer, unassigned) [Example 24A]
[A] 6.75

[Q] # repeat for CC(c1ccc(F)cc1F)[C@@H](CNC(=O)c1nn(C)c(=O)[nH]1)C1CC1 (single isomer, unassigned) [Example 237]
[A] 6.56

[Q] Next entry: CC(c1ccc(F)cc1F)[C@@H](CNC(=O)c1nccc(=O)[nH]1)C1CC1 (single isomer, unassigned) [Example 225]
[A] 5.47

[Q] And what about the compound CN(CC(C)(C)Cc1ccccc1)C(=O)c1nn(C)c(=O)[nH]1 ?
[A] 4.67

---

Kindly supply the reported mPTP Rat liver pIC50 values for the records listed here.
# Tested on: mPTP
# method-description: mPTP activity (Ca2+ retention) assay in isolated rat liver mitochondria
# Assay type: biochemical
# test-settings: examples tested by different contract research organisations, believed comparable
# Description: Pharmacological inhibition or modulation of the mPTP can be measured in well characterised ‘Ca^2+ retention’ assays performed in isolated mitochondria. […] The distribution of Ca^2+ between extra- and intra-mitochondrial compartments can be measured in real time with the use of membrane-impermeant Ca^2+ sensitive fluorescent dyes. […] MPTP activity was measured in mitochondria freshly isolated from female Sprague Dawley (250 to 300 gram) rat livers using the following method. […]

[Q] Please look up its mPTP Rat liver pIC50: CC(C)(CNC(=O)c1cc(C(F)(F)F)n[nH]1)Cc1ccccc1
[A] <4.52

[Q] Would you kindly repeat that for Cc1cc(=O)[nH]c(C(=O)NCC2(Cc3ccc(F)cc3F)CCC2)n1 ?
[A] <4.57

[Q] Now try Cn1nc(C(=O)NCC2(Cc3ccc(F)cc3F)CCC(F)(F)CC2)[nH]c1=O .
[A] <4.57

---

Provide the reported mPTP Rat liver pIC50 of each item.
# Test system: mPTP
# method-description: mPTP activity (Ca2+ retention) assay in isolated rat liver mitochondria
# Type: biochemical
# test-settings: examples tested by different contract research organisations, believed comparable
Just the number, please, no unit after it.

[Q] Return reported mPTP Rat liver pIC50; argument: Cn1nc(C(=O)NCC2(Cc3ccccc3F)CCC2)[nH]c1=O
[A] 6.44

[Q] Further, for Cn1nc(C(=O)NC[C@H](Cc2ccc(F)c(F)c2)C2CC2)[nH]c1=O ?
[A] 7.08

[Q] Let us now turn to CCC(F)(CNC(=O)c1nccc(=O)[nH]1)Cc1ccc(F)cc1F (single isomer, unassigned) [Example 255]
[A] 6.45

[Q] Proceed to Cn1nc(C(=O)NCC(Cc2ccccc2)C2CCC2)[nH]c1=O (stereo not shown)
[A] 5.62

[Q] # iterate: C[C@](CNC(=O)c1ncc(Cl)c(=O)[nH]1)(Cc1ccc(F)cc1F)C1CC1
[A] 5.78

[Q] Input Cc1cnc(C(=O)NCC2(Cc3ccccc3)CCC2)[nH]c1=O
[A] 6.14

[Q] Request: Cn1nc(C(=O)NCC2(Cc3cccc(Cl)c3)CCC2)[nH]c1=O
[A] 6.39

[Q] Try this compound too: Cn1nc(C(=O)NCCC(C)(C)c2ccccc2)[nH]c1=O
[A] 5.06

[Q] Okay, and Cc1cccc(CC2(CNC(=O)c3nn(C)c(=O)[nH]3)CCC2)c1F ?
[A] 5.77

[Q] Queued: O=C(NCC1(Cc2ccccc2F)CCC1)c1cncc(O)n1
[A] 5.33

[Q] Query Cn1nc(C(=O)NCC2(Cc3ccccc3)CC2)[nH]c1=O next
[A] 5.63

[Q] Next entry: Cc1ncc(C(=O)NCC2(Cc3ccccc3)CCC2)cc1O
[A] 6.02

[Q] Try the compound Cn1nc(C(=O)NCC2(Cc3ccc(F)cc3F)CC23CC3)[nH]c1=O (single isomer, unassigned) [Example 231]
[A] 6.61

[Q] Let us now turn to Cn1nc(C(=O)NCC2(Cc3ccc(F)cc3F)CCCO2)[nH]c1=O (single isomer, unassigned) [Example 229]
[A] 6.32

[Q] And then Cn1nc(C(=O)NCC2(Cc3ccc(F)cc3F)CC23CC3)[nH]c1=O (stereo not shown) [Example 123] , what is it?
[A] 7.04

[Q] // next record CC(NC(=O)c1nn(C)c(=O)[nH]1)[C@H](Cc1ccc(F)cc1F)C1CC1 (stereo partly shown)
[A] 6.56

[Q] Moving on to COc1ccccc1CC1(CNC(=O)c2nn(C)c(=O)[nH]2)CCC1
[A] 4.99

[Q] Next record, please: Cn1nc(C(=O)NCC2(Cc3ccccc3C(F)F)CCC2)[nH]c1=O
[A] 5.65

[Q] Same read-out for CC[C@H](CNC(=O)c1nn(C)c(=O)[nH]1)Cc1ccccc1 (single isomer, unassigned) [Example 54b] ?
[A] 6.82

[Q] Moving on to Cn1nc(C(=O)NCC(C)(Cc2ccc(F)cc2F)C2CC2)[nH]c1=O (stereo not shown) [Example 210]
[A] 6.82

[Q] Cn1nc(C(=O)NCC2(Cc3ccccc3)CCC2)[nH]c1=O , same question.
[A] 6.58

[Q] Then what about the compound O=C(NCC1(Cc2ccc(F)cc2F)CC12CC2)c1nccc(=O)[nH]1 (single isomer, unassigned) [Example 235] ?
[A] 6.79

[Q] And Cn1nc(C(=O)NCC2(Cc3cccc(C4CC4)c3)CCC2)[nH]c1=O ?
[A] 4.78

[Q] Can you check O=C(NCC1(Cc2ccc(F)cc2F)CC12CC2)c1cncc(=O)[nH]1 (stereo not shown) next?
[A] 6.31

[Q] Repeat for the following compound: CC(CNC(=O)c1cc(O)no1)(Cc1ccc(F)cc1)C1CC1 (single isomer, unassigned) [Example 271]
[A] 6.83

[Q] Next compound up: Cn1nc(C(=O)NCC2(C)Cc3ccccc3C2)[nH]c1=O
[A] 5.03

Data credit: patent US12491185B2
